biological target: UniProt P29597
Sequence (P29597 whole entry, species assumed): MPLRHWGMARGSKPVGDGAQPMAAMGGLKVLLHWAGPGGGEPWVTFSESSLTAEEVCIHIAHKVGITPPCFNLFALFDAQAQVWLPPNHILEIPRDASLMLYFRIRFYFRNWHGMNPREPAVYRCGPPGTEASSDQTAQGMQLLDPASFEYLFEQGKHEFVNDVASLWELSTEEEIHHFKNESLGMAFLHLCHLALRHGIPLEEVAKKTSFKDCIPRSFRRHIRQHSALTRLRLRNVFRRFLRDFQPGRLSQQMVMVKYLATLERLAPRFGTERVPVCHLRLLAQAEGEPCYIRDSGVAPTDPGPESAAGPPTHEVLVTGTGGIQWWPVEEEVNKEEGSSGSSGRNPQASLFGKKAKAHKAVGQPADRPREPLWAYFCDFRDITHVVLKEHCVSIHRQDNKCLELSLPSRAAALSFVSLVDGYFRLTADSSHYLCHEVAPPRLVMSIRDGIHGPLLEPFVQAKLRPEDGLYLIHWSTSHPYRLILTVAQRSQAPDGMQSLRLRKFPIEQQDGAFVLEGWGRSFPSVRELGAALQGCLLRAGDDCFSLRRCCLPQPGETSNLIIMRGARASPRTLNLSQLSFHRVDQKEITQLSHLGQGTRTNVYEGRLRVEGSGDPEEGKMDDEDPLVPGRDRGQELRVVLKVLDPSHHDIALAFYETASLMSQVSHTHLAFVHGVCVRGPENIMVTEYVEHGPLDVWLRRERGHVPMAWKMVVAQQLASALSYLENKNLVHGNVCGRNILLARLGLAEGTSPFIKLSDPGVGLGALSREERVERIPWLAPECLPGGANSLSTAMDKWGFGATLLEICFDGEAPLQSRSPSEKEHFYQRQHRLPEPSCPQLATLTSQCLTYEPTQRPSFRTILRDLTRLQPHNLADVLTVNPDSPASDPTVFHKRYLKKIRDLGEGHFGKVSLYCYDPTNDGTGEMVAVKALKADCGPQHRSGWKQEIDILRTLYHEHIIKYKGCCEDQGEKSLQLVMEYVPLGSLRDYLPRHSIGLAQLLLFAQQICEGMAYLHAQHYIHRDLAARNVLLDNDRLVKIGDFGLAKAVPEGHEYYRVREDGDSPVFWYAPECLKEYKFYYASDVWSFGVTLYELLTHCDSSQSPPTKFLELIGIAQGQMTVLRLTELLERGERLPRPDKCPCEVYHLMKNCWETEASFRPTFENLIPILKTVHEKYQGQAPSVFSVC
In this section we review reported IC50 values for a set of compounds.
Endpoint: IC50 (nM)

{"Chemical Structure": "O=C(Nc1cc2c(Cl)cncc2s1)[C@@H]1C[C@H]1c1ccc(S(=O)(=O)Nc2ccccn2)cc1", "Endpoint": "IC50", "Observed Measurement": 1.1}
{"Chemical Structure": "Cc1cncc2sc(NC(=O)[C@@H]3C[C@H]3c3ccc(S(=O)(=O)Nc4ccccn4)cc3)cc12", "Endpoint": "IC50", "Observed Measurement": 8}

====

// values below are pIC50; system is UniProtKB O75116
Sequence (O75116 whole entry, species assumed): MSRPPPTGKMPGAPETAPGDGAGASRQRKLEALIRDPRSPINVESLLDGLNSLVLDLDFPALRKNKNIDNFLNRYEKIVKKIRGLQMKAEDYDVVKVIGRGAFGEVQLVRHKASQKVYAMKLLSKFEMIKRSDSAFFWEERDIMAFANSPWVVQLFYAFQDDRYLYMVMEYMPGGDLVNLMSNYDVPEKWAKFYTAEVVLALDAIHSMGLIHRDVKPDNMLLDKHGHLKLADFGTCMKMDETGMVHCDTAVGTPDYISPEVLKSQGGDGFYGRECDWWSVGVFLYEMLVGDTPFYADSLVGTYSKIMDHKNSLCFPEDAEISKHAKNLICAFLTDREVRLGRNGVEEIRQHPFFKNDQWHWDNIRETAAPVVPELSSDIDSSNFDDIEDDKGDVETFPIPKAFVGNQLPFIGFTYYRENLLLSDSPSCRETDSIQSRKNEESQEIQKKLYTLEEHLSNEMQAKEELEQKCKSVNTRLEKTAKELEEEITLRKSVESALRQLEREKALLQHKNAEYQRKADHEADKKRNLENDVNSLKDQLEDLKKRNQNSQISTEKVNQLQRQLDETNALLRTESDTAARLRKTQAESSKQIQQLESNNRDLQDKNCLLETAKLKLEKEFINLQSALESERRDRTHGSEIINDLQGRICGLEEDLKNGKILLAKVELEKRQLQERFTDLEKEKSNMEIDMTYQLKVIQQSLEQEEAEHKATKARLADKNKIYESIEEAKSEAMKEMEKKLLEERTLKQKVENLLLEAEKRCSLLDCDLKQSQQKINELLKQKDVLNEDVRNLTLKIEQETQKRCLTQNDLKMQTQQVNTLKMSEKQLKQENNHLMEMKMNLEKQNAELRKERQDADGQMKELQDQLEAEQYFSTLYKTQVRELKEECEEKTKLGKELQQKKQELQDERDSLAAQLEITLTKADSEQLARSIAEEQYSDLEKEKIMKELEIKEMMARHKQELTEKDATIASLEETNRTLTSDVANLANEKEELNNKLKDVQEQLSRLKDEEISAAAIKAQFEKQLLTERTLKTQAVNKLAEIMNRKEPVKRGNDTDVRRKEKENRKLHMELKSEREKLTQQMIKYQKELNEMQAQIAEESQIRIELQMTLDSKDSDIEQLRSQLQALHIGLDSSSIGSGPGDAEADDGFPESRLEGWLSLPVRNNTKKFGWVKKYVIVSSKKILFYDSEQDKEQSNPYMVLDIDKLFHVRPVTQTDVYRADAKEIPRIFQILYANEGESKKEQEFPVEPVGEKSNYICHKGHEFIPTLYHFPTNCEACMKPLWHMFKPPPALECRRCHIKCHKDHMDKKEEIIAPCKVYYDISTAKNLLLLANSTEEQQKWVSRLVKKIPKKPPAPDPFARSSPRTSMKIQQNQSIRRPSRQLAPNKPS
pIC50: −log10 of the molar value.

{"Compound": "Cc1cncc2sc(NC(=O)C3CC3c3ccncc3)cc12 (centres unmarked) [Compound 14]", "Experimental System": "UniProtKB O75116", "pIC50": 6.64}
{"Compound": "O=C(Nc1nc2ccncc2s1)C1CC1c1ccncc1 (centres unmarked) [Compound 18]", "Experimental System": "UniProtKB O75116", "pIC50": 7.52}
{"Compound": "O=C(Nc1ccc2cnccc2n1)[C@@H]1CC1c1ccc(S(=O)(=O)Nc2ccccn2)cc1 (mixture of isomers) [Compound 4]", "Experimental System": "UniProtKB O75116", "pIC50": 8.22}
{"Compound": "O=C(Nc1nc2ccncc2s1)[C@@H]1CC1c1ccc(S(=O)(=O)Nc2ccccn2)cc1 (mixture of isomers) [Compound 3]", "Experimental System": "UniProtKB O75116", "pIC50": 8.22}
{"Compound": "O=C(Nc1cc2c(Cl)cncc2s1)C1CC1c1ccncc1 (centres unmarked) [Compound 21]", "Experimental System": "UniProtKB O75116", "pIC50": 6.95}
